TARGET_ENTITY: human complement factor D (Homo sapiens)
Construct: purchased R&D Systems 1824-SE
Sequence (P00746 26-253): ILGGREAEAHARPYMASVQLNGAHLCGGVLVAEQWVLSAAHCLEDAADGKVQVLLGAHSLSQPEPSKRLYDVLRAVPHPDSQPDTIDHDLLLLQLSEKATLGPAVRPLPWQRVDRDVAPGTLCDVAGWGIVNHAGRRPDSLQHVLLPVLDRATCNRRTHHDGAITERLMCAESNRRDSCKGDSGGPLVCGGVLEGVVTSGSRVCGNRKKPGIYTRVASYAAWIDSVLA
METHOD_NOTES: In vitro enzyme inhibition of human complement factor D (Z-Lys-SBzl/DTNB, A405)
Assay type: biochemical
ASSAY_CONDITIONS: biochemical assay, substrate Z-Lys-SBzl; read-out: CFD IC50
pIC50: −log10 of the molar value.
Each entry below carries its reported pIC50.

MOLECULE	TARGET_ENTITY	pIC50
C[C@@H](C(=O)NCc1cccc(Cl)c1F)N(C(=O)Cn1nc(C(N)=O)c2ccccc21)C1CC1 [Example 39]	human complement factor D (Homo sapiens)	< 5.00
N#Cc1cccc(CNC(=O)CN(C(=O)Cn2nc(C(N)=O)c3ccccc32)C2CC2)c1F [Example 123]	human complement factor D (Homo sapiens)	5.00 to 6.00
NC(=O)c1nn(CC(=O)N(CC(=O)NCc2cccc(Cl)n2)C2CC2)c2ccccc12 [Example 107]	human complement factor D (Homo sapiens)	5.00 to 6.00
N#Cc1ccc(CNC(=O)CN(C(=O)Cn2nc(C(N)=O)c3ccccc32)C2CC2)c(F)c1Cl [Example 96]	human complement factor D (Homo sapiens)	5.00 to 6.00
NC(=O)c1nn(CC(=O)N(CC(=O)NCc2cccc(Cl)c2C(F)(F)F)C2CC2)c2ccccc12 [Example 135]	human complement factor D (Homo sapiens)	5.00 to 6.00

Q. Requested field: pIC50. Item: CC(C(N)=O)N(CC(=O)NCc1cccc(Cl)c1F)C(=O)Cn1nc(C(N)=O)c2ccccc21 (centres unmarked) [Example 62]
A. 5.00 to 6.00

Q. One more molecule: NC(=O)c1cc(C(=O)O)n(CC(=O)N(CC(=O)NCc2cccc(Cl)c2F)C2CC2)n1 [Example 44]
A. 5.00 to 6.00

Q. One more molecule: NC(=O)c1nc(CC(=O)N(CC(=O)NCc2cccc(Cl)c2F)C2CC2)n2ccccc12 [Example 42]
A. 6.00 to 7.00
